Study Target: CDK9/CycT1 (Homo sapiens (Human), UniProt P50750)
Sequence (P50750 whole entry): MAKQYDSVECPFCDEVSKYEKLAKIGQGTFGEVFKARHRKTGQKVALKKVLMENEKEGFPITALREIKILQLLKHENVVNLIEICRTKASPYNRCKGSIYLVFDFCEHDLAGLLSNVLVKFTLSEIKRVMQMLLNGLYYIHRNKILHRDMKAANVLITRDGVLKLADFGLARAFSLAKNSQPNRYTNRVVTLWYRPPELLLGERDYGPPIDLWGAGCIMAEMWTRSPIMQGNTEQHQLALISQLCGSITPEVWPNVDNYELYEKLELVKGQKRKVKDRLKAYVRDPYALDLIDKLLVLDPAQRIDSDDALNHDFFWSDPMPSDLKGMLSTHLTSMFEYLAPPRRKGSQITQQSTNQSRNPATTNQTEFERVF
Sequence (O60563 whole entry partner): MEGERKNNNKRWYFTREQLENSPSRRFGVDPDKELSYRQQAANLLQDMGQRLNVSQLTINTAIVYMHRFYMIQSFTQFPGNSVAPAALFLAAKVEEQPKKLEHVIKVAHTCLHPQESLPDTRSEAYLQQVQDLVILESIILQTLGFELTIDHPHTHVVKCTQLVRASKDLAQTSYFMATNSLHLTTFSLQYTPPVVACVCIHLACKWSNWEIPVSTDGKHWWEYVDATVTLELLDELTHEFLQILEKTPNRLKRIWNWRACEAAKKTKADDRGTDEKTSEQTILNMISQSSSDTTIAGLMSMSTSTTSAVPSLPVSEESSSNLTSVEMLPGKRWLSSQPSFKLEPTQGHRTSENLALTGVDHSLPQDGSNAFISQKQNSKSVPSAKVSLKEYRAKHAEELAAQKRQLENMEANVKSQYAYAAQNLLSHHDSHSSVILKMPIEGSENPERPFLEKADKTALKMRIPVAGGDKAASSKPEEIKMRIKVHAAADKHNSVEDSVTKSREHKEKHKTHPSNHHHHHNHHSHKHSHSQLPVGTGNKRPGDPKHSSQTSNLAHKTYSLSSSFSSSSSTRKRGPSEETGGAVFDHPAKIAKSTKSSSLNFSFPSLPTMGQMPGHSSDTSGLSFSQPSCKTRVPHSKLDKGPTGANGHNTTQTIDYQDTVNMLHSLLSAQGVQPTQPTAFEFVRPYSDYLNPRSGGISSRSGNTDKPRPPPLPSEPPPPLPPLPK
Experiment Notes: ADP-Glo Kinase Assay
Measured Parameter: IC50

Respond only with IC50 recorded for c1cc(-c2ccn3nccc3n2)nc(NC2CCNCC2)n1
1000 to 5000 nM

Report IC50 for CC(C)c1cnn2ccc(-c3ccnc(N[C@H]4CC[C@H](N)C4)n3)nc12
< 1000 nM

For the compound O[C@@H]1CNCC[C@H]1CNc1nccc(-c2ccn3ncc(C4CCC4)c3n2)n1 (relative stereo) , report IC50.
1000 to 5000 nM

Hello, please tell me recorded IC50 for this one: c1cc(-c2ccn3nccc3n2)nc(N[C@H]2CC[C@H](NC3CCOCC3)CC2)n1
1000 to 5000 nM

// provenance: patent US20230322792A1
